Recorded EC50, one value per entry.
Biological target: A. baumannii PBP2 (Acinetobacter baumannii, UniProt D0C8Z9)
Sequence (D0C8Z9 whole entry): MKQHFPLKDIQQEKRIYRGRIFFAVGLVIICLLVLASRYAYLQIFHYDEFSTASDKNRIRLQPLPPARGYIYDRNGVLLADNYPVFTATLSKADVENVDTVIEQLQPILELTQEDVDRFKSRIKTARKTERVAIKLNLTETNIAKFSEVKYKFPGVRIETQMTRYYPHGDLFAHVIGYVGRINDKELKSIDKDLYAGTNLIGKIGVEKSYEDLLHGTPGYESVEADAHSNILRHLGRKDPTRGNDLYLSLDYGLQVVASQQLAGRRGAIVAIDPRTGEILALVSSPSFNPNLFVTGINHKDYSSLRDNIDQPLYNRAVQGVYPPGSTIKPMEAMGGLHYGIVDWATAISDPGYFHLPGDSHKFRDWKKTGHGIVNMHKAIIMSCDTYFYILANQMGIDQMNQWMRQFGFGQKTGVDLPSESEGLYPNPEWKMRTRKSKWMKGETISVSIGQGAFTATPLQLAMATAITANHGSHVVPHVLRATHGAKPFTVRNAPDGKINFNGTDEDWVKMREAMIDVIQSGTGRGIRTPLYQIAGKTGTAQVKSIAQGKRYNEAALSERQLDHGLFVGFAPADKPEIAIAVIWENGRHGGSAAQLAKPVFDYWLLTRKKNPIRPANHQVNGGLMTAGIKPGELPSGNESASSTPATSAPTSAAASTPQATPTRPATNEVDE
Experiment: Bocillin-FL competition binding via gel filtration, A. baumannii PBP2

>  <Compound>
O=C(N[C@@H](C(=O)N[C@H]1Cc2cccc(C(=O)O)c2OB1O)c1ccc(P(=O)(O)O)cc1)c1ccc(O)c(O)c1Cl [Example 49]

>  <Target of assay>
A. baumannii PBP2 (Acinetobacter baumannii, UniProt D0C8Z9)

>  <EC50>
10 to 50 µM

$$$$
>  <Compound>
O=C(O)c1c(F)ccc2c1OB(O)[C@@H](NC(=O)[C@H](NC(=O)N1CCN(C3CCN(C(=O)Nc4ccc(O)cc4)CC3)C(=O)C1=O)c1cc(F)c(O)c(O)c1Cl)C2 (single isomer, unassigned) [Example 426]

>  <Target of assay>
A. baumannii PBP2 (Acinetobacter baumannii, UniProt D0C8Z9)

>  <EC50>
10 to 50 µM

$$$$
>  <Compound>
O=C(O)c1c(F)ccc2c1OB(O)[C@@H](NC(=O)C(NC(=O)N1CCN(C3CCN(C(=O)Nc4cc(O)ccc4F)CC3)C(=O)C1=O)c1cc(F)c(O)c(O)c1Cl)C2 (stereo partly shown) [Example 479]

>  <Target of assay>
A. baumannii PBP2 (Acinetobacter baumannii, UniProt D0C8Z9)

>  <EC50>
10 to 50 µM

$$$$
>  <Compound>
O=C(O)c1c(F)ccc2c1OB(O)[C@@H](NC(=O)[C@H](NC(=O)N1CCN(C3CCN(C(=O)c4cccc(O)c4)CC3)C1=O)c1cc(F)c(O)c(O)c1Cl)C2 (single isomer, unassigned) [Example 430]

>  <Target of assay>
A. baumannii PBP2 (Acinetobacter baumannii, UniProt D0C8Z9)

>  <EC50>
< 10 µM

$$$$
>  <Compound>
O=C(NCCCS(=O)(=O)N1CCN(C(=O)N[C@H](C(=O)N[C@H]2Cc3ccc(F)c(C(=O)O)c3OB2O)c2ccc(P(=O)(O)O)cc2)C1=O)c1ccc(O)c(O)c1Cl (single isomer, unassigned) [Example 169]

>  <Target of assay>
A. baumannii PBP2 (Acinetobacter baumannii, UniProt D0C8Z9)

>  <EC50>
50 to 250 µM

$$$$
>  <Compound>
O=C(O)c1c(F)ccc2c1OB(O)[C@@H](NC(=O)C(NC(=O)N1CCN(C3CCN(C(=O)c4ccc(O)cc4)CC3)C(=O)C1=O)c1cc(F)c(O)c(O)c1Cl)C2 (stereo partly shown) [Example 427]

>  <Target of assay>
A. baumannii PBP2 (Acinetobacter baumannii, UniProt D0C8Z9)

>  <EC50>
< 10 µM

$$$$
>  <Compound>
O=C(O)c1c(F)ccc2c1OB(O)[C@@H](NC(=O)[C@H](NC(=O)N1CCN(C3CCN(C(=O)c4cccc(O)c4F)CC3)C1=O)c1cc(F)c(O)c(O)c1Cl)C2 (single isomer, unassigned) [Example 431]

>  <Target of assay>
A. baumannii PBP2 (Acinetobacter baumannii, UniProt D0C8Z9)

>  <EC50>
< 10 µM

$$$$
>  <Compound>
O=C(O)c1c(F)ccc2c1OB(O)[C@@H](NC(=O)[C@H](NC(=O)N1CCN(C3CCN(C(=O)Nc4cccc(O)c4Cl)CC3)C(=O)C1=O)c1cc(F)c(O)c(O)c1Cl)C2 [Example 482]

>  <Target of assay>
A. baumannii PBP2 (Acinetobacter baumannii, UniProt D0C8Z9)

>  <EC50>
10 to 50 µM

$$$$
>  <Compound>
O=C(NCCCN1CCN(C(=O)NC(C(=O)N[C@H]2Cc3ccc(F)c(C(=O)O)c3OB2O)c2cc(F)c(O)c(O)c2Cl)C(=O)C1=O)c1c(F)cc(O)cc1Cl (stereo partly shown) [Example 421]

>  <Target of assay>
A. baumannii PBP2 (Acinetobacter baumannii, UniProt D0C8Z9)

>  <EC50>
< 10 µM

$$$$
>  <Compound>
O=C(O)c1c(F)ccc2c1OB(O)[C@@H](NC(=O)C(NC(=O)N1CCN(C3CCN(C(=O)c4cc(O)cc(O)c4)CC3)C(=O)C1=O)c1cc(F)c(O)c(O)c1Cl)C2 (stereo partly shown) [Example 309]

>  <Target of assay>
A. baumannii PBP2 (Acinetobacter baumannii, UniProt D0C8Z9)

>  <EC50>
< 10 µM

$$$$
